- System: SNB-75 CNS
- ASSAY METHOD TEXT: NCI-60 one-dose screen, 48 h (100 = growth as untreated, 0 = no growth, -100 = all killed)
- CONDITION DESCRIPTION: 10 µM unless noted
- Description: Growth inhibition of the SNB-75 human tumor cell line is measured as a screen for anti-cancer activity. Cells are grown in 96 well plates and exposed to the test compound for 48 hours. Compounds are tested at a single concentration, which is 10^-5 M for most compounds. The reported endpoint is percent growth (GI% or GIPRCNT), where numbers from 0 - 100% represent growth inhibition, and numbers from -100% - 0 represent cell death. For example, a value of 40 represents 60% growth inhibition. […]
Compounds without any hit were thinned out: in the full panel of roughly 83,000, 20% have a hit.
growth for assorted compounds
VALUE TYPE: growth (%)

# COMPOUND, TARGET UNDER TEST, MEASUREMENT UNIT, REPORTED VALUE
data = [
    ("N#Cc1cnc2ccc(-c3cnc4[nH]ncc4c3)cc2c1N1CCc2cc(F)c(Cl)cc21", "SNB-75 CNS", "%", -9.27),
    ("Cn1ccnc1C(=O)/C=C/c1ccc(CNC(=O)c2ccc(S(F)(F)(F)(F)F)cc2)cc1", "SNB-75 CNS", "%", 57.6),
    ("O=C(CCn1cc[n+](CC(=O)c2ccc(-c3ccccc3)cc2)c1)Nc1cccc2cccnc12", "SNB-75 CNS", "%", 45.4),
    ("COc1ccc(Cn2cc3c(c2-c2cc(OC)c(OC)c(OC)c2)CCc2c(CN4CCOCC4)noc2-3)cc1", "SNB-75 CNS", "%", 18),
    ("CCO/C=N/C1=C(C#N)C(c2ccc(Cl)cc2)c2sc3c(C)cccc3c2O1 (stereo not given)", "SNB-75 CNS", "%", -5.08),
]

* * *

- Tested on: DU-145 prostate
- ASSAY METHOD TEXT: NCI-60 one-dose screen, 48 h
- CONDITION DESCRIPTION: 10 µM unless noted
About 83,000 compounds went through this panel and 20% of them were active in at least one assay; those are over-represented in the sample as a whole. Activity calls are given as the source filed them. The calls were made as follows: active = growth percent below 10; inactive = the rest.
Labels: active, inactive

# COMPOUND, DISCRETE LABEL
data = [
    ("O=C(NCCN1CCCC1)c1ccc(-c2nc3ccc4[nH]ncc4c3c3c2CCCC3)cc1", "active"),
    ("CC[C@H](CO)Nc1ccc2ncc(C#Cc3cncc(C(=O)Nc4ccc(CN5CCN(C)CC5)c(C(F)(F)F)c4)c3)n2n1", "active"),
    ("C=C(C=O)[C@@H]1CC[C@]2(CO)CC[C@]3(C)[C@H](CC[C@@H]4[C@@]5(C)CCCNC(C)(C)[C@@H]5CC[C@]43C)[C@@H]12", "inactive"),
    ("Cc1ccc(NC(=S)NNC(=S)Nc2ccc(C)cc2)cc1", "inactive"),
    ("O=C1CCCc2nc(Nc3ccc(S(=O)(=O)Nc4ccc([N+](=O)[O-])cc4)cc3)ncc21", "inactive"),
    ("CC(=O)N1C(=S)NC(=O)C1CC(C)C (centres undefined)", "inactive"),
    ("NC(N)=Nc1ccc(Oc2cccc(NC(N)=Nc3ccc(I)cc3F)c2)cn1", "inactive"),
    ("CCN(CC)CCn1c2ccc(O)cc2c2sc3cc(OC)ccc3c(=O)c21", "inactive"),
    ("Nc1nc(-c2cccc([N+](=O)[O-])c2)c(N=Nc2ccc(Br)cc2)s1", "active"),
]
